Tgt: UniProt:Q06187
Sequence (Q06187 whole entry): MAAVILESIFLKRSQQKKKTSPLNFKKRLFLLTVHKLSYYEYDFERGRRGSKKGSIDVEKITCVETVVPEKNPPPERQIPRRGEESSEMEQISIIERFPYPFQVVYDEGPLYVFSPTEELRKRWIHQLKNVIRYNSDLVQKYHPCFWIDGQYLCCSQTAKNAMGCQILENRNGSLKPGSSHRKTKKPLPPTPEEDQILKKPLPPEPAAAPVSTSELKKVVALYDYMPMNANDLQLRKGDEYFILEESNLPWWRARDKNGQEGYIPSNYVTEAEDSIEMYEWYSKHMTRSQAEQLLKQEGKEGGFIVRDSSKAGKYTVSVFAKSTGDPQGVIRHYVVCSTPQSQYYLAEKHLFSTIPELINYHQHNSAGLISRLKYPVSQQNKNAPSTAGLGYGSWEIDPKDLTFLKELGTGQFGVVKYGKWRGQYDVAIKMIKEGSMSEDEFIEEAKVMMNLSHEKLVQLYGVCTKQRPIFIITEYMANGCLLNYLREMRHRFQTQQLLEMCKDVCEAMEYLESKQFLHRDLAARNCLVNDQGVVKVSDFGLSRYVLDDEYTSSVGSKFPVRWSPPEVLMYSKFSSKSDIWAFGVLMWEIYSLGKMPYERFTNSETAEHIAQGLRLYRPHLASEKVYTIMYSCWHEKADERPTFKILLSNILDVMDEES
Test Summary: Btk PBMC IC50 Cell Assay (anti-IgM-induced CD69 expression on B cells);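 further: freshly isolated human PBMCs, IC50 from concentration-response of the share of CD19+ cells expressing CD69 after anti-IgM BCR stimulation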
Type: cell-based
Setup Conditions: anti-IgM-induced CD69 expression on CD19 positive cells in human PBMCs
Measurement Name: IC50

Lab entry: UniProt:Q06187 assay, compound Cc1c(-c2nc3nccc(-c4ccc5c(c4)CCCC[C@@H]5NC(=O)c4nnc(C(C)(C)C)o4)c3[nH]2)cnn1C1CCOCC1 , IC50 = > 100 nM

Simply: Cc1c(-c2nc3c(-c4ccc5c(c4)CCCCC5NC(=O)c4noc(C(C)(C)C)n4)ccnc3[nH]2)cnn1C(C)C (stereo not shown) , UniProt:Q06187, IC50 = 1 to 10 nM
